Biological target: human JAK1 (a.a. 837-1142) (Homo sapiens)
Construct: human JAK1 (a.a. 837-1142); His tag (N); made in house; host or cells: insect cells (baculovirus)
Sequence (P23458 849-1154): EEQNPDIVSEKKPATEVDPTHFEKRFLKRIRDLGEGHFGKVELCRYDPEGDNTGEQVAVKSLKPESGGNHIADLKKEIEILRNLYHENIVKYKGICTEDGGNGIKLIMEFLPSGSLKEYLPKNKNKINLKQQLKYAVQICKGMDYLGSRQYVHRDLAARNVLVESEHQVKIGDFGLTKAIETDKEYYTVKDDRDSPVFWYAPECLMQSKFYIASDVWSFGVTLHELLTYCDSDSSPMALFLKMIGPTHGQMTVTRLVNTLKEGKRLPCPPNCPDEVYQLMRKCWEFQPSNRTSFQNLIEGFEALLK
Test: In vitro JAK kinase assay (HTRF, phosphorylation of a biotinylated peptide), JAK1
Format: biochemical
Conditions: Table D1; read-out: JAK1 IC50
quantity: IC50 (nM)

1: O=C(C[C@H]1CCN(c2nc3ccccc3s2)C1)Nc1ccc2cc1CCc1cncc(c1)Nc1ncc(Cl)c(n1)N2 [Example D136, tris(trifluoroacetate)]
2: O=C(c1ccccc1)N1CCN(c2ccc3cc2CCc2cccc(c2)Nc2ncc(Cl)c(n2)N3)CC1 [Example D94, bis(trifluoroacetate)]
3: CNC(=O)N1CCN(C(=O)COc2ccc3cc2CCc2cncc(c2)Nc2ncc(Cl)c(n2)N3)CC1 [Example D265, bis(trifluoroacetate)]
Rank descending by IC50: all 3 molecules from above. Field: ranking. Enter the labels in the order requested.
2, 3, 1

Origin of values: patent US8871753B2
